Each item that follows carries a reported log10 IC50.
Tested on: HeLa
Assay: Cytotoxicity against human HeLa cells preincubated with compound for 3 hrs followed by 81 J/cm2 light irradiation and measured after 24 hrs by CCK8 assay
Type: functional, cell-based
Conditions: light or radiation study
MEASURED_QUANTITY: log10 IC50 (log10 of the value in nM)

{"GIVEN_SMILES": "COc1ccc(C2=[N+]3C(=Nc4c(-c5ccccc5)cc(-c5ccc(OC)cc5)n4[B-]3(F)F)C(c3ccccc3)=C2I)cc1", "OBSERVED": 1.43}
{"GIVEN_SMILES": "CCN(CC)Cc1ccc(C2=C(I)C(c3ccc(OC)cc3)=[N+]3C2=Nc2c(-c4ccc(CN(CC)CC)cc4)cc(-c4ccc(OC)cc4)n2[B-]3(F)F)cc1", "OBSERVED": 0.72}
{"GIVEN_SMILES": "CCN(CC)Cc1ccc(C2=C(I)C(c3ccc(OC)cc3)=[N+]3C2=Nc2c(-c4ccccc4)c(I)c(-c4ccc(OC)cc4)n2[B-]3(F)F)cc1", "OBSERVED": 1.78}
{"GIVEN_SMILES": "CCN(CC)Cc1ccc(C2=C(Br)C(c3ccc(OC)cc3)=[N+]3C2=Nc2c(-c4ccc(CN(CC)CC)cc4)c(Br)c(-c4ccc(OC)cc4)n2[B-]3(F)F)cc1", "OBSERVED": 1.65}
{"GIVEN_SMILES": "CCN(CC)Cc1ccc(C2=C(I)C(c3ccc(OC)cc3)=[N+]3C2=Nc2c(-c4ccc(CN(CC)CC)cc4)c(I)c(-c4ccc(OC)cc4)n2[B-]3(F)F)cc1", "OBSERVED": 1.71}
{"GIVEN_SMILES": "CCN(CC)Cc1ccc(C2=C(I)C(c3ccc(OC)cc3)=[N+]3C2=Nc2c(-c4ccccc4)c4c(n2[B-]3(F)F)-c2ccc(OC)cc2CC4)cc1", "OBSERVED": 0.83}
